pEC50 by entry:
- ASSAY SYSTEM: T1, human GPC3 on CHO-K1-human GPC3 cells (CHOK1-hGPC3.2B5) (human, UniProt P51654 25-554)
- T1 construct: whole, on cells
- TEST PROTOCOL: FACS, CHOK1-hGPC3.2B5 cells;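 also: flow cytometry of humanized antibodies binding to the cells over one hour in the cold, read as cell mean fluorescence intensity, with EC50 obtained by curve fitting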
Remember, pEC50 is on a log scale: it is -log10 of the molar concentration.

hAb003LH2L1a (antibody, human IgG1, V domains shown, Humanized F2.154.1; VH H2 + VL L1a; expressed as human IgG1) VH: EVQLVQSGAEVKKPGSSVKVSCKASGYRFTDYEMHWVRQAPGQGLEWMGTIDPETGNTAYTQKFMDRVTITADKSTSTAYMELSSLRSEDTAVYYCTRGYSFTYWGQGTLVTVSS VL: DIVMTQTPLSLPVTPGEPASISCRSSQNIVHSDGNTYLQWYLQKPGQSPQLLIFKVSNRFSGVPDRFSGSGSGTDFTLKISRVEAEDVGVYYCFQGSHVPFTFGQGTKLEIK = 7.94
hAb003LH1L1a (antibody, human IgG1, V domains shown, Humanized F2.154.1; VH H1 + VL L1a; expressed as human IgG1) VH: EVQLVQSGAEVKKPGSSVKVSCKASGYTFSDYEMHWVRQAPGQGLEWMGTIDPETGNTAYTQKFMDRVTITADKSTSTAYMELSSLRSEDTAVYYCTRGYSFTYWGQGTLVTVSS VL: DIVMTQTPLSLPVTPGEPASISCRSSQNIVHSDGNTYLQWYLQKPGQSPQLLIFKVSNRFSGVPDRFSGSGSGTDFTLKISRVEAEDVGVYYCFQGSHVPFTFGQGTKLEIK = 7.35
hAb007LH1L1b (antibody, human IgG1, V domains shown, Humanized F3.81.19; VH H1 + VL L1b; expressed as human IgG1) VH: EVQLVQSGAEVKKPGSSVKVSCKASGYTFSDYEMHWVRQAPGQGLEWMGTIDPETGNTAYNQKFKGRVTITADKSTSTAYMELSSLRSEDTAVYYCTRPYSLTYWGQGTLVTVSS VL: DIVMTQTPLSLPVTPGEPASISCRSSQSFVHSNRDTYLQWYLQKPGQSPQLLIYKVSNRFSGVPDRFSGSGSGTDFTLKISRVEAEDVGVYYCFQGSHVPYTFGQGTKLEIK = 8.19
hAb007LH1L1e (antibody, human IgG1, V domains shown, Humanized F3.81.19; VH H1 + VL L1e; expressed as human IgG1) VH: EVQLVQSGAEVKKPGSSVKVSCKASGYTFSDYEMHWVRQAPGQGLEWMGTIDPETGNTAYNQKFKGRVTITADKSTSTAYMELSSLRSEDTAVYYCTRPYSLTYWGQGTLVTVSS VL: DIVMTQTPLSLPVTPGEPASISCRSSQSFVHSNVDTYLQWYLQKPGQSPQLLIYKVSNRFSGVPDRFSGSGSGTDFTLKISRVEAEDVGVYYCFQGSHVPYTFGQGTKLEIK = 7.98

QUERY: GET /values?readout=pEC50&item= hAb005LH3L1a (antibody, human IgG1, V domains shown, Humanized F3.54.12; VH H3 + VL L1a; expressed as human IgG1) VH: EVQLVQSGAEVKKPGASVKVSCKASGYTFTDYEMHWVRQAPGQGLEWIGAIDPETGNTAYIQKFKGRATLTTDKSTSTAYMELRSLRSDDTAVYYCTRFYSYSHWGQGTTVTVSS VL: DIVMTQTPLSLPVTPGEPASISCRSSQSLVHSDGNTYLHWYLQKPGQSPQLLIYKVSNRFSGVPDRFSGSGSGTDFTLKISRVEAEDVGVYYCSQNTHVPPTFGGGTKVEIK
RESULT: 6.88
